All values here come from PubChem BioAssay (NCI).

System: LOX IMVI melanoma
Experiment: NCI-60 one-dose screen, 48 h
Conditions: 10 µM unless noted
Method: Growth inhibition of the LOX IMVI human tumor cell line is measured as a screen for anti-cancer activity. Cells are grown in 96 well plates and exposed to the test compound for 48 hours. Compounds are tested at a single concentration, which is 10^-5 M for most compounds. The reported endpoint is percent growth (GI% or GIPRCNT), where numbers from 0 - 100% represent growth inhibition, and numbers from -100% - 0 represent cell death. For example, a value of 40 represents 60% growth inhibition. […]
This is part of a sample that, as a whole, favours compounds with a hit. Of some 83,000 tested, about 20% had one in any assay. Activity calls are given as the source filed them. The calls were made as follows: active = growth percent below 10; inactive = the rest.
Give one outcome, nothing more. List: Yes = active, No = inactive

Problem: Call for entry C/C=C/C/C=C/[C@H](C)C[C@H](O)[C@@H]1C[C@@H]2O[C@H]2/C=C/[C@@H]2OC(C)(C)O[C@H]2/C=C/C[C@H](C)CC(=O)O1 :
Result: No

Problem: // same read-out, input: CC1(c2ccc(Br)cc2)NC(=O)NC1=O (centres undefined)
Result: No

Problem: // same read-out, input: Nc1nc2c(c3ncncc13)C(c1cccc(C(F)(F)F)c1)Cc1ncncc1-2 (centres undefined)
Result: No

Problem: // same read-out, input: COc1ccc(C(=O)c2no[n+]([O-])c2C(=O)c2ccc(OC)cc2)cc1
Result: Yes

Problem: // same read-out, input: O=C(O)CC1Cc2ccccc2C1C(=O)O (centres undefined)
Result: No

Problem: // same read-out, input: O=C1C(Br)=CC2C1C1C3CCC3C2(Br)C12OCCO2 (centres undefined)
Result: Yes

Problem: // same read-out, input: CC(C)CSc1nc(-c2ccc(F)cc2)c(C#N)c(N2CCCCC2)n1
Result: No

Problem: // same read-out, input: CCCC(=O)NNc1[nH]c(-c2cc(OC)c(OC)c(OC)c2)cc1C(=O)OCC
Result: No

Problem: // same read-out, input: COc1ccc(C2C3(C#N)C(N)=NC(=C(C#N)C#N)C23C#N)cc1OC (centres undefined)
Result: No

Problem: // same read-out, input: C/C=C/C/C=C/[C@H](C)C[C@H](O)[C@@H]1C[C@@H]2O[C@H]2/C=C/[C@H](O)[C@@H](O)/C=C/C[C@H](C)CC(=O)O1
Result: No

Problem: // same read-out, input: OCC(O)C(O)CC1SCCS1 (centres undefined)
Result: No

Problem: // same read-out, input: COc1cc(-c2nn(-c3ccc(NC(=O)Nc4ccc(Cl)c(Cl)c4)cc3)cc2-c2ccncc2)ccc1Cl
Result: No

Problem: // same read-out, input: COc1cccc(-c2cc(-c3cc4ccccc4oc3=O)nc(N)n2)c1
Result: No

Problem: // same read-out, input: CC(Br)c1nc2ccccc2cc1C(N)=O (centres undefined)
Result: No

* * *

system: K-562 leukemia; experiment: NCI-60 one-dose screen, 48 h (100 = growth as untreated, 0 = no growth, -100 = all killed); conditions: 10 µM unless noted
The panel holds about 83,000 compounds, 20% with a hit somewhere; the sample as a whole holds those more often.
quantity_measured: growth (%)
Quick reminder: number only, in %, skip the unit.

Problem: Give the measured growth of Cn1cnc2nc[nH]c2c1=S .
Result: 103

Problem: // same read-out, input: Cc1ccc(S(=O)(=O)Nc2cccc(Cn3c(=O)[nH]c4ccc(Oc5ncccn5)cc4c3=O)c2)cc1
Result: 26.6

Problem: // same read-out, input: O=C(OCC1CC2(Cl)C(Cl)=C(Cl)C1(Cl)C2(Cl)Cl)C1C(C(=O)OCC2CC3(Cl)C(Cl)=C(Cl)C2(Cl)C3(Cl)Cl)C2(Cl)C(Cl)=C(Cl)C1(Cl)C2(Cl)Cl (stereo unspecified)
Result: 94.7

Problem: // same read-out, input: CCC(C)(C)c1ccc(OCCCCCCN2CCN(c3ccc(C)c(Cl)c3)CC2)cc1
Result: 78.4

Problem: // same read-out, input: O=c1oc2ccc3ccccc3c2cc1-c1ccnc2[nH]c(=S)[nH]c(=O)c12
Result: 93.4

Problem: // same read-out, input: CC(=O)c1ccc2c(c1)c1ccccc1n2C
Result: 86.7

Problem: // same read-out, input: CN(CCC#N)c1ccc(/C=C(\C#N)c2cccc(C(F)(F)F)c2)cc1
Result: 21

Problem: // same read-out, input: COc1ccc2cnc(N)c(C#Cc3cc(C(=O)Nc4ccc(CN5CCN(C)CC5)c(C(F)(F)F)c4)cnc3C)c2c1
Result: -42.8

Problem: // same read-out, input: CCOc1ccc(N(C)c2ccc(/C=C/C3=[N+](C)c4ccccc4C3(C)C)cc2)cc1
Result: 8.09

Problem: // same read-out, input: Cc1ncc(C(=O)Nc2ccc(CN3CCN(C)CC3)c(C(F)(F)F)c2)cc1C#Cc1c(N)ncc2ccccc12
Result: -73.2

Problem: // same read-out, input: CC(=O)/C(=C/c1ccc(-c2ccccc2)cc1)C(=O)c1ccccc1
Result: 64.2

Problem: // same read-out, input: CCCCCCCCC/C(=N\NC(=O)c1ccncc1)c1ccc(O)c(O)c1O
Result: 15.1

Problem: // same read-out, input: Cc1cc2cn3c4ccc(O)cc4nc(N)c3c2cc1C
Result: -14.9

Problem: // same read-out, input: Cn1c2c(cc(S(=O)(=O)c3ccccc3)c1=O)CCc1c-2cnn1-c1ccc(Cl)cc1
Result: 39.8

Problem: // same read-out, input: CCCCCCCCCC[N+](C)(C)N
Result: 71.6

Problem: // same read-out, input: COc1cc(N)c2nccc(C)c2c1OC
Result: 92.1

* * *

tested on: NCI-H460 lung; experiment: NCI-60 one-dose screen, 48 h (100 = growth as untreated, 0 = no growth, -100 = all killed); conditions: 10 µM unless noted
Compounds without any hit were thinned out: in the full panel of roughly 83,000, 20% have a hit.
Please respond with reported growth for every item in the list.
Quick reminder: number only, in %, skip the unit.

Problem: So what growth did CCOC(=O)C1=C(C(F)(F)F)NC(=S)NC1CN1C(=O)c2ccccc2C1=O (stereo not given) get with NCI-H460 lung?
Result: 106

Problem: // same read-out, input: Cc1c(CN(C)C)cc(C(C)C)cc1C(C)C
Result: 111

Problem: // same read-out, input: Oc1ccc(Br)cc1/C=N/NC(=S)NC12CC3CC(CC(C3)C1)C2
Result: 2.18

Problem: // same read-out, input: O=C(/C=C/c1ccc(Cl)cc1)c1ccc(Cl)cc1
Result: 104

Problem: // same read-out, input: O=C1NCCN1/N=C/c1c(Cl)nc2n1CCS2
Result: 111

Problem: // same read-out, input: c1cc(C2CCCCC2)ccc1OCCCCCCN1CCNCC1
Result: -7.36

Problem: // same read-out, input: CC(=O)c1cc(Nc2cc(C)nc(N)n2)cc(C(C)=O)c1
Result: 104

Problem: // same read-out, input: O=C1N/C(=N\c2nnc(-c3ccc(O)cc3)s2)S/C1=C\c1ccccc1O
Result: 102

Problem: // same read-out, input: O=C1OC(c2ccc(-c3ccccc3)cc2)=C/C1=C/c1c2ccccc2cc2ccccc12
Result: 94.5

Problem: // same read-out, input: O=C(CCl)c1ccc2c(c1)CCCC2
Result: 107

Problem: // same read-out, input: CCCCCCCCCCCCCCCCNC(=O)Nc1ccc(C)c(NC(=O)NCCCCCCCCCCCCCCCC)c1
Result: 103

Problem: // same read-out, input: O=C1C(Cl)=C(SC2=NCCN2)C(=O)c2ccccc21
Result: 70

Problem: // same read-out, input: Cc1c(Cc2ccccc2)c(=O)oc2c(C)c(OCc3n[nH]c(=S)o3)ccc12
Result: 3.31

Problem: // same read-out, input: Cc1cc2c(-c3nc4ccccc4n3C)c(O)c(O)cc2c(O)c1-c1c(C)cc2c(-c3nc4ccccc4n3C)c(O)c(O)cc2c1O
Result: 7.3

Problem: // same read-out, input: Clc1ccc(N/N=C(\c2ccccc2)c2ccccn2)nc1
Result: 1.31

Problem: // same read-out, input: C=CCN(C)C
Result: 108

Problem: // same read-out, input: COc1ccc(OC)c(Cn2cc3c(c2-c2ccccc2)CCc2cnoc2-3)c1
Result: 22.7

Problem: // same read-out, input: CC[N+](C)(C)N
Result: 108

Problem: // same read-out, input: CCCCCCCCC/C(=N\NC(=O)c1ccncc1)c1ccc(O)c(O)c1O
Result: 4.14

Problem: // same read-out, input: CCCCCCCCCC[N+](C)(C)C
Result: 13

Problem: // same read-out, input: CN(CCC#N)c1ccc(/C=C(\C#N)c2cccc(C(F)(F)F)c2)cc1
Result: 74

Problem: // same read-out, input: CC/C(=N\Nc1nc2ccccc2n1C)c1ccccn1
Result: 1.28

Problem: // same read-out, input: O=C1/C(=N\c2cc(=O)[nH]n2S(=O)(=O)c2ccccc2)Nc2ccccc21
Result: 105

Problem: // same read-out, input: COc1cc(OC)cc(-c2ccc(-c3ccc(C(=N)N)cc3)s2)c1
Result: -88.5

Problem: // same read-out, input: CC(C)OC(=O)Nn1cnc2ccccc21
Result: 114

Problem: // same read-out, input: CCCCCc1ccnc(CC(=O)c2ccc(OC)cc2)c1
Result: 95.2

Problem: // same read-out, input: CCn1cc(C(=O)O)c(=O)c2cc(F)c(N3CCN(S(=O)(=O)c4ccc(Cl)cc4)CC3)cc21
Result: 5.92

Problem: // same read-out, input: CC[n+]1c(C)ccc2cc(C)ccc21
Result: 110

Problem: // same read-out, input: CC(=O)Nc1nc(C)c(C(=O)N/N=C/N2CCCCC2)s1
Result: 110

Problem: // same read-out, input: CCOC(=O)CSSCC(=O)OCC
Result: 108

Problem: // same read-out, input: CNc1ccc(Nc2ccc(S(=O)(=O)O)cc2)c2c1C(=O)c1ccccc1C2=O
Result: 108

Problem: // same read-out, input: COC(=O)c1c[n+]([O-])ccc1OC
Result: 107

Problem: // same read-out, input: Cc1ccnc2c(NC(C)CCCN)cc(O)c(O)c12 (stereo not given)
Result: 115

Problem: // same read-out, input: O=c1oc2ccc3ccccc3c2cc1-c1ccnc2[nH]c(=S)[nH]c(=O)c12
Result: 103

Problem: // same read-out, input: CC(O)CN(CC(C)O)N(CC(C)O)CC(C)O (stereo not given)
Result: 106

Problem: // same read-out, input: Cc1[nH]n(C(=S)Nc2nc3cc(Cl)c(F)cc3s2)c(=O)c1N=Nc1ccc(F)c(Cl)c1
Result: 106

Problem: // same read-out, input: c1ccc(C(=NNc2nc3ccccc3o2)c2ccccn2)nc1
Result: 3.05

Problem: // same read-out, input: COc1cc2c(cc1OC)C(Cc1cc(OC)c(OC)cc1[N+](=O)[O-])=NCC2
Result: 64.8

Problem: // same read-out, input: CCCCCCC(C(=O)OCC)(C(=O)OCC)C1CCCCCC1
Result: 106

Problem: // same read-out, input: C#CCCCCCCC[C@@H]1OC(=O)[C@H]([C@@H](C)CC)NC(=O)[C@H]([C@@H](C)CC)NC(=O)CC(=O)[C@@H]1C
Result: 103
